Catalogue of normalised viability values
Tested on: HCC1937
Test: normalised viability (% of control), CellTiter-Blue; higher = more viable cells (about 100 = DMSO control)
Conditions: 10000 nM; incubation time: 72 h
Give the value, in units of %, as a plain number.

Consider the worked cases shown below.
| molecule | unit-info | normalised viability |
| --- | --- | --- |
| C[C@@H](Oc1cc(-c2cnn(C3CCNCC3)c2)cnc1N)c1c(Cl)ccc(F)c1Cl [Crizotinib] | % | 7.72 |
| Oc1nc(-c2ccc(C(F)(F)F)cc2)nc2c1CSCC2 [XAV-939] | % | 122 |
| CC1(C)NC(=O)N(c2ccc([N+](=O)[O-])c(C(F)(F)F)c2)C1=O [Nilutamide] | % | 94.7 |
| CC(C)Cn1cnc2c(N)nc3ccccc3c21 [Imiquimod] | % | 88.5 |
| CN(N=O)C(=O)N[C@@H](C=O)[C@@H](O)[C@H](O)[C@H](O)CO [Streptozocin] | % | 75.9 |

The record that follows has no normalised viability shown yet.
In: normalised viability lookup needed for C[C@]12CC[C@@H]3c4ccc(O)cc4C[C@@H](CCCCCCCCC[S+]([O-])CCCC(F)(F)C(F)(F)F)[C@H]3[C@@H]1CC[C@@H]2O (stereo partly specified) [Fulvestrant] , thanks.
Out: 88.3
